# System: COLO 205
# methodNotes: NCI tumour cell line growth inhibition, 48 h
The source made the active and inactive calls. Rule as the data show it: active = GI50 up to about 1.1 µM and inactive = higher.
One label from this list, please: active, inactive

Consider the worked cases shown below.
CCOCN1COCN/C1=N/C#N
inactive
CCCCCCCCCCCCCCCC(=O)N(CCCCCCCCCCC(=O)O)CC(O)C(O)C(OC1OC(CO)C(O)C(O)C1O)C(O)CO (stereo not drawn)
inactive
O=c1[nH]cc(/C=N\Nc2ccccc2)c(=O)[nH]1
inactive

input: Lab log entry: O=C1c2cccnc2-c2nccc3ccnc1c23 — outcome as called in the assay?
output: active

###

# System: HOP-62
# methodNotes: NCI tumour cell line growth inhibition, 48 h
Active and inactive are the calls of the source. Cut-off read from the data, not from the text of the source: active = GI50 up to about 1.1 µM and inactive = higher.
Pick from 1 for active, 0 for inactive when you respond.

Cc1ccc([N+](=O)[O-])cc1S(=O)(=O)Nc1ccc(C2=NN(c3ccc([N+](=O)[O-])cc3[N+](=O)[O-])C(c3ccccc3)C2)cc1 (configuration not stated)
0
C=C1CC(C#N)(C#N)[C@@H]2CC3CCCC3[C@H]12.C=C1CC(C#N)(C#N)[C@H]2C3CCCC3C[C@@H]12 (some centres not stated)
0
CC/C=C\C/C=C\C/C=C\CCCCCCCC(=O)OCC(O)CO (configuration not stated)
0
CN(C(=O)C1=CCCCCC1)c1ccccc1I
0

input: Dear all, I need the recorded test outcome for C=C(Nc1ccc(OC)cc1OC)C(=O)Cc1cccc[n+]1[O-] , thank you.
output: 0

input: And the next one, N#Cc1ccccc1NC(=O)C(=O)C(C(=O)c1ccccc1-c1ccccc1)C1OC(=O)c2ccccc21 (configuration not stated) ?
output: 0

input: Queued: N#Cc1nn(-c2ccc(Cl)cc2)c(=N)c2c(N)n3nc(-c4ccccc4)cc3nc12
output: 1

###

What GI50 was measured for each of the following?
# Tested on: KM12
# methodNotes: NCI tumour cell line growth inhibition, 48 h
Calls of active or inactive are those of the source. No stated cut-off is given here; in the data, active = GI50 up to about 1.1 µM and inactive = higher.

The following compounds have reported results that may help.
O=C(CSCC(=O)N/N=C/c1ccccc1)N/N=C\c1ccccc1
16.7 µM (inactive)
CC(=O)Oc1ccc2c(c1)CC[C@@H]1C2[C@@H](O[N+](=O)[O-])C[C@@]2(C)C1CC[C@@H]2O (stereo not given in full)
29.9 µM (inactive)

Look at each compound and report its GI50.
1. c1ccc(-c2ccc(-c3cc4ccccc4[nH]3)cc2)cc1
2. Nc1c(C(=O)c2ccc(Cl)cc2)[nH]c(Nc2ccc(Cl)cc2)c1C(=S)Nc1ccccc1
3. Clc1ccc(C2=C(c3ccccc3)C(c3ccc(Cl)cc3)N3C(=N[C@H]4CCCC[C@@H]43)N2)cc1 (stereo not given in full)
4. CN(CCN(C)CCN(C)C(=O)Cc1ccc(Cl)c(Cl)c1)CCN1CCCC1

output:
["> 100 µM (inactive)", "7.6 µM (inactive)", "9.4 µM (inactive)", "35 µM (inactive)"]

###

Give measured GI50 for each item. Keep answers brief.
# System: CCRF-CEM
# methodNotes: NCI tumour cell line growth inhibition, 48 h
The source made the active and inactive calls. No stated cut-off is given here; in the data, active = GI50 up to about 1.1 µM and inactive = higher.

CC1(C)OC(=O)[C@@](C)([C@H](O)c2ccccc2)O1
> 100 µM (inactive)
CC[P+](C)(C)c1ccccc1
> 100 µM (inactive)
CCOC(=O)c1c2ccc(/C=C/c3ccccn3)ccc-2c(C(=O)OCC)c1N
> 100 µM (inactive)

Please give GI50 for each item listed below.
1. Nc1nc(=O)n(C2CC(O)C(O)C(CO)O2)cc1F (stereo unspecified)
2. CC12CCC(O)CC1CCC1C2CCC2(C)C(C(=O)CC(O)C(F)(F)F)CCC12 (stereo unspecified)
3. C=C1CC(C#N)(C#N)[C@@H]2CC3CCCC3[C@H]12.C=C1CC(C#N)(C#N)[C@H]2C3CCCC3C[C@@H]12 (stereo partly specified)
4. Cc1ccc2c(=O)c(C(=O)Nn3c(C)csc3=S)c[nH]c2n1

output:
1. > 100 µM (inactive)
2. 25.6 µM (inactive)
3. 10 µM (inactive)
4. > 100 µM (inactive)

For the 4 molecules below, give their GI50 values.
1. CCCCCCNC(=O)C1=C(C)NC(C)=C(C(=O)NCCCCCC)C1
2. FC(F)(F)C1(C(F)(F)F)C2CCC3(CC(F)(F)C(F)(F)S3)C1C2 (stereo unspecified)
3. Clc1ccc(C2=CCN3CC=C(c4ccc(Cl)cc4)C23)cc1
4. [N-]=[N+]=CC(=O)OCCCCl

output:
1: 70.3 µM (inactive); 2: 24.5 µM (inactive); 3: 12.8 µM (inactive); 4: > 100 µM (inactive)

###

# Test system: SR
# methodNotes: NCI tumour cell line growth inhibition, 48 h
Calls of active or inactive are those of the source. Cut-off read from the data, not from the text of the source: active = GI50 up to about 1.1 µM and inactive = higher.
Form entry, call: pick from active, inactive

Recorded results for 5 compounds are shown here.
COc1cc2c(cc1O)CC[C@@H]1C2CC[C@@]2(C)C1CC[C@@H]2O (stereo partly specified)
active
O=C1OC[C@@H]2Cc3c([nH]c4ccccc34)[C@@H](c3ccc(O)cc3)N12
inactive
CCOC(=O)c1nc2ccccc2n(CC)c1=O
inactive
O=C1/C(=C/c2ccco2)NC(=S)N1CN1CCOCC1
inactive
COc1ccc(-c2cc(=O)c3c(OC)c(O)c(OC)cc3o2)cc1
inactive

Now consider a different compound.
input: What was the test verdict on CN(C)C(=O)/N=c1\ss/c(=N\C(=S)N(C)C)n1-c1ccccc1 ?
output: inactive

###

# System: U-251
# methodNotes: NCI tumour cell line growth inhibition, 48 h
Activity calls are given as the source filed them. Cut-off read from the data, not from the text of the source: active = GI50 up to about 1.1 µM and inactive = higher.
assayReadout: GI50

// below: answered compounds
CC(C)(Oc1ccc2c(=O)cc(-c3ccc(Cl)cc3)oc2c1)C(=O)Nc1c(Cl)cccc1Cl
> 100 µM (inactive)
CN(C(=O)C1=CCCCCC1)c1ccccc1I
44.9 µM (inactive)
CN(/N=C/c1cccc2cccnc12)c1ccc([N+](=O)[O-])cc1[N+](=O)[O-]
13.9 µM (inactive)
CN=S(=O)(C[C@]1(O)CC2OC1C1OC(C)(C)OC21)c1ccccc1 (stereo not given in full)
> 100 µM (inactive)

input: Could you share which GI50 value was measured for CC(=O)N1C/C(=C\c2ccccc2)C(=O)/C(=C/c2ccccc2)C1 ?
output: 15.6 µM (inactive)

###

Give measured GI50 for each item. Keep answers brief.
# Test system: SNB-19
# methodNotes: NCI tumour cell line growth inhibition, 48 h
Activity calls are given as the source filed them. Rule as the data show it: active = GI50 up to about 1.1 µM and inactive = higher.

Here is how some compounds turned out for GI50.
CCCCCCCCCCCCCCCCCCNC(=S)N/C=C1/C(=O)C=C(C)OC1=O
20.4 µM (inactive)
Cc1ccc(NC(=O)/C(=N\Nc2ccc([N+](=O)[O-])cc2[N+](=O)[O-])C2C(=O)NC(=O)NC2=O)cc1
> 100 µM (inactive)
CNNC(=NS(=O)(=O)c1cc(C#N)c(NNC)cc1S)NNC
> 10 µM (inactive)
CCOC(=O)/C(C(N)=O)=C(O)/C(O)=C/C(=O)c1ccc(Cl)cc1
33.3 µM (inactive)
Fc1cccc(CSc2ncnc3c2ncn3C2CCCS2)c1 (stereo not drawn)
36.2 µM (inactive)
N#Cc1c(C(N)=O)ncn1Cc1ccccc1
> 100 µM (inactive)
O=C1c2cccnc2-c2nccc3ccnc1c23
1.03 µM (active)
N#Cc1c(N)nc2c(C#N)c(N)cc3c2c1Oc1ccccc1-3
> 100 µM (inactive)
CN(/N=C/c1cccc2cccnc12)c1ccc([N+](=O)[O-])cc1[N+](=O)[O-]
11.3 µM (inactive)
O=C(OC(=C(c1ccccc1)c1ccccc1)N1CCCC1=S)C(c1ccccc1)c1ccccc1
> 10 µM (inactive)

Hi team, please reply with GI50 for each item in this list.
1. C=C(Br)N(CC)CC
2. O=C(CC(=O)Nc1ccc(C(=O)O)cc1)Nc1ccc(C(=O)O)cc1

output:
1. > 100 µM (inactive)
2. > 100 µM (inactive)

###

# Tested on: CCRF-CEM
# methodNotes: NCI tumour cell line growth inhibition, 48 h
Active and inactive are the calls of the source. Rule as the data show it: active = GI50 up to about 1.1 µM and inactive = higher.
Reply using exactly one outcome from yes (1) (active), no (0) (inactive)

Below are worked cases with known answers.
O=C(CC(=O)Nc1ccc(C(=O)O)cc1)Nc1ccc(C(=O)O)cc1
no (0)
CC(C)C1=CC(=O)[C@@](C)(C2[C@H](O)C[C@@]3(C)[C@@H]4CC=C5[C@@H](CC[C@@H](OC6OCC(O)C(O)C6OC6OC(C)C(O)C(O)C6O)C5(C)C)[C@]4(C)C(=O)C[C@]23C)O1 (stereo partly drawn)
no (0)
CC1=CC(=O)NCCN1C
no (0)

input: State the result this test recorded for C[C@]12CC[C@H](O[C@@H]3O[C@H](CO[C@@H]4O[C@H](CO)[C@@H](O)[C@H](O)[C@H]4O)[C@@H](O)[C@H](O)[C@H]3O)C[C@@H]1CC[C@@H]1[C@@H]2CC[C@]2(C)[C@@H](C3=CC(=O)OC3)CC[C@]12O .
output: no (0)

input: Consider next the compound COc1c(C(=O)CC2c3c(cc4oc(C)cc(=O)c4c3OC)OC(=N)C2c2nc3ccccc3[nH]2)c(O)c(OC)c2occc12 (stereo not drawn) in the same way.
output: no (0)

input: // query: COC(=O)[C@]12CC[C@H]3CN(C(=O)OCc4ccccc4)[C@H]([C@H]31)[C@H](c1ccco1)N2
output: no (0)

input: Ok, now CN(NC(=O)/C(=C\c1ccco1)NC(=O)c1ccccc1)c1cn[nH]c(=O)c1Cl
output: no (0)

input: Now consider CCC(=O)OC1CCn2c1nc1c2C(=O)C(C)=C(NC(C)=O)C1=O (stereo not drawn) .
output: yes (1)

input: Entry CCOC(=O)c1cc(-c2ccc(-c3cc(C(=O)OCC)c(C#N)c(N)c3C#N)cc2)c(C#N)c(N)c1C#N please
output: no (0)

input: Please do the same for N#Cc1c(N)nc2c(C#N)c(N)cc3c2c1Oc1ccccc1-3 as well.
output: no (0)

input: Try this compound too: CC(C)OC(=O)C1=C(O)c2ccccc2S(=O)(=O)N1
output: no (0)

input: What about this compound? CCCCCCCCCCCCCCCCCc1nc(C#N)c(N)o1
output: no (0)

input: Lookup N#CC(O)CCOCc1ccccc1 (stereo not drawn)
output: no (0)

input: Next entry: N#Cc1ccccc1NC(=O)C(=O)C(C(=O)c1ccccc1-c1ccccc1)C1OC(=O)c2ccccc21 (stereo not drawn)
output: no (0)

input: Please answer likewise for Oc1ccccc1C1C=C(c2ccccc2)NC(N2CCCCC2)=C1c1nc2ccccc2[nH]1 (stereo not drawn)
output: no (0)

input: Again, but for Cc1ccc(NC(=O)/C(=N\Nc2ccc([N+](=O)[O-])cc2[N+](=O)[O-])C2C(=O)NC(=O)NC2=O)cc1
output: no (0)

input: How about Cc1ccc2c(O)cc(-c3ccccc3)nc2n1 ?
output: yes (1)

input: Next up: COc1cccc(-c2[nH]c3cc4c(cc3c(=O)c2C(=O)O)OCO4)c1
output: no (0)
